# MEASURED TARGET: recombinant eIF4E (Homo sapiens (Human), UniProt P06730)
# Sequence (P06730 whole entry): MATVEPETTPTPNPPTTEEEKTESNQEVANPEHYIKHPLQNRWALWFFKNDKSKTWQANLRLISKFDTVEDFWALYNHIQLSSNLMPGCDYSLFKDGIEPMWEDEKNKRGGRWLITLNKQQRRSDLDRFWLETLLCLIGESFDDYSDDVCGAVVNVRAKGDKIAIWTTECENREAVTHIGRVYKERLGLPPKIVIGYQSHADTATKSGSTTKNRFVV
# PROTOCOL TEXT: Fluorescence polarization competition assay for eIF4E binding potency
# STATED CONDITIONS: inhibition of eIF4E/EDA-m7GDP-ATTO-550 binding by 50%; Table 4B calculated values; read-out: IC50
EXPERIMENTAL ENDPOINT: pIC50
Numbers only, as −log10 of the molar value.

Batch of 3 compounds: report pIC50 for each.
1. Cc1cc(-c2c(CF)cc3nc(C)n(CCOc4ccc(Cl)cc4-c4cc(C)nc5c(C(=O)O)csc45)c(=O)c3c2C#N)cc(C)n1 [compound 933]
2. Cc1cc(-c2cc(Cl)ccc2OCCn2c(C)nc3cc(C(F)(F)F)c(N4CCN(C)CC4=O)c(C#N)c3c2=O)c2scc(C(=O)O)c2n1 [compound 1075]
3. N#Cc1cccc2nc(C(F)F)n(CCOc3ccc(Cl)cc3-c3ccnc(C(=O)O)c3)c(=O)c12 [compound 166]

[6.91, 8.18, 7.46]

Batch of 4 compounds: report pIC50 for each.
1. CNc1ncc2nc(C)n(CCOc3ccc(Cl)cc3-c3cc(C)nc4c(C(=O)O)csc34)c(=O)c2c1C#N [compound 985]
2. Cc1nc2cncc(C#N)c2c(=O)n1CC#Cc1ccc(Cl)cc1-c1ccc(C(=O)O)c(C(=O)O)c1 [compound 149]
3. CCc1cc(-c2cc(Cl)ccc2OCCn2c(C)nc3cc(C(F)(F)F)c(C4=CCN(C)CC4)c(C#N)c3c2=O)c2scc(C(=O)O)c2n1 [compound 1088]
4. Cc1cc(-c2cc(Cl)ccc2OCCn2c(C)nc3cncc(C#N)c3c2=O)c2scc(C(=O)O)c2n1 [compound 597]

8.17
6.96
7.27
7.33

Batch of 5 compounds: report pIC50 for each.
1. Cc1cc(-c2cc(Cl)ccc2OCCn2c(C)nc3cc(C(F)(F)F)c(N4CCN(C)CC4)nc3c2=O)c2sc(C)c(C(=O)O)c2n1 [compound 1096]
2. Cc1cc(-c2cc(Cl)ccc2OCCn2c(C)nc3cc(-c4cccnc4)cc(C#N)c3c2=O)c2scc(C(=O)O)c2n1 [compound 654]
3. Cc1nc2cnc(C3=CCC(F)(F)CC3)c(C#N)c2c(=O)n1CCOc1ccc(Cl)cc1-c1ccnc2c(C(=O)O)csc12 [compound 882]
4. Cc1nc2c(Cl)cc(Cl)c(C#N)c2c(=O)n1CCOc1ccc(Cl)cc1-c1ccnc2c(C(=O)O)csc12 [compound 209]
5. Cc1nc2cc(C(F)(F)F)c(CN(C)C)cc2c(=O)n1CCOc1ccc(Cl)cc1-c1ccnc2c(C(=O)O)csc12 [compound 408]

1: 7.47; 2: 8.51; 3: 8.18; 4: 7.33; 5: 7.51

Which pIC50 is reported for this compound? Cc1nc2cnc(N3CCN(C4CC4)CC3(C)C)c(C#N)c2c(=O)n1CC#Cc1ccc(Cl)cc1-c1ccnc2c(C(=O)O)csc12 [compound 1102] 7.72

====

# MEASURED TARGET: recombinant eIF4E (Homo sapiens (Human))
# PROTOCOL TEXT: Fluorescence polarization competition assay for eIF4E binding potency
# STATED CONDITIONS: inhibition of eIF4E/EDA-m7GDP-ATTO-550 binding; calculated IC50 values, Table 4B; read-out: IC50
EXPERIMENTAL ENDPOINT: pIC50
Numbers only, as −log10 of the molar value.

Below, each entry is followed by its recorded pIC50 result.
[[record]]
compound = "Cc1nc2cnc(N3CCN(C(C)C(F)F)CC3)c(C#N)c2c(=O)n1CCOc1ccc(Cl)cc1-c1ccnc2c(C(=O)O)csc12 (stereo not drawn) [compound 1312]"
experimental_endpoint = "pIC50"
observed_result = 8.08

[[record]]
compound = "Cc1nc2cnc(N3CCN(C)C4(COC4)C3)c(C#N)c2c(=O)n1CCOc1ccc(Cl)cc1-c1ccnc2c(C(=O)O)csc12 [compound 1351]"
experimental_endpoint = "pIC50"
observed_result = 7.80


Which pIC50 is reported for this compound? Cc1nc2c(F)ccc(C#N)c2c(=O)n1CCOc1ccc(Cl)cc1-c1ccnc2c(C(=O)O)csc12 [compound 1373] 7.57

====

# MEASURED TARGET: recombinant eIF4E (Homo sapiens (Human), UniProt P06730)
# PROTOCOL TEXT: Fluorescence polarization competition assay for eIF4E binding potency
# STATED CONDITIONS: fluorescence polarization competition, 75 nM recombinant eIF4E, 20 nM EDA-m7GDP-ATTO-550; IC50 class; read-out: elF4E FP
pIC50: −log10 of the molar value.
EXPERIMENTAL ENDPOINT: pIC50

Below, each entry is followed by its recorded pIC50 result.
[[record]]
compound = "COc1ccc(C#N)c2c(=O)n(CCOc3ccc(Cl)cc3-c3ccnc4c(C(=O)O)csc34)c(C)nc12 [compound 403]"
experimental_endpoint = "pIC50"
observed_result = "> 7.30"

[[record]]
compound = "Cc1cc(-c2cc(Cl)ccc2OCCn2c(C)nc3cnc(N4CCc5ccccc54)c(C#N)c3c2=O)c2scc(C(=O)O)c2n1 [compound 982]"
experimental_endpoint = "pIC50"
observed_result = "> 7.30"

[[record]]
compound = "Cc1cc(-c2cc(Cl)ccc2OCCn2c(C)nc3cc(C(F)(F)F)c(-c4ccnc(C)c4C)c(C#N)c3c2=O)c2scc(C(=O)O)c2n1 [compound 686]"
experimental_endpoint = "pIC50"
observed_result = "> 7.30"


Batch of 3 compounds: report pIC50 for each.
1. N#Cc1cccc2nc(C(F)F)n(CCOc3ccc(Cl)cc3-c3cncn(CC(=O)O)c3=S)c(=O)c12 [compound 192]
2. Cc1nc2cnc(N(C)C3CCN(CC(F)(F)CO)CC3)c(C#N)c2c(=O)n1CC#Cc1ccc(Cl)cc1-c1ccnc2c(C(=O)O)csc12 [compound 1132]
3. Cc1nc2cc(Cl)c(C(F)F)c(C#N)c2c(=O)n1CCOc1ccc(Cl)cc1-c1ccnc2c(C(=O)O)csc12 [compound 119]

1. < 6.00
2. > 7.30
3. > 7.30

Batch of 6 compounds: report pIC50 for each.
1. CCc1cc(-c2cc(Cl)ccc2OCCn2c(C)nc3cc(C(F)(F)F)cc(C#N)c3c2=O)c2scc(C(=O)O)c2n1 [compound 330]
2. Cc1cc(-c2cc(Cl)ccc2OCCn2c(C)nc3cnc(-c4ccc5ncsc5c4)c(C#N)c3c2=O)c2scc(C(=O)O)c2n1 [compound 993]
3. Cc1nc2cnc(C#N)cc2c(=O)n1CC#Cc1ccc(Cl)cc1-c1ccnc2c(C(=O)O)csc12 [compound 625]
4. Cc1nc2cc(C(F)(F)F)c(OCC(F)(F)F)c(C#N)c2c(=O)n1CCOc1ccc(Cl)cc1-c1ccnc2c(C(=O)O)csc12 [compound 1153]
5. Cc1nc2cc(C(F)(F)F)cc(C#N)c2c(=O)n1CCOc1ccccc1-c1ccnc2c(C(=O)O)csc12 [compound 227]
6. N#Cc1cccc2nc(C(F)F)n(CCOc3ccc(Cl)cc3-c3ccc(C(=O)O)c4ccsc34)c(=O)c12 [compound 191]

> 7.30
> 7.30
6.00 to 7.30
> 7.30
6.00 to 7.30
6.00 to 7.30

Which pIC50 is reported for this compound? Cc1nc2cnc(N(C)C3CCN(CC(F)(F)C(F)(F)F)CC3)c(C#N)c2c(=O)n1CC#Cc1ccc(Cl)cc1-c1ccnc2c(C(=O)O)csc12 [compound 1119] > 7.30

====

# MEASURED TARGET: recombinant eIF4E (Homo sapiens (Human), UniProt P06730)
# PROTOCOL TEXT: Fluorescence polarization competition assay for eIF4E binding potency
# STATED CONDITIONS: inhibition of eIF4E/EDA-m7GDP-ATTO-550 binding; calculated IC50 values, Table 4B; read-out: IC50
Answer each item with its documented pIC50.
One number for each entry, as −log10 of the molar value.

Below, each entry is followed by its recorded pIC50 result.
[[record]]
compound = "COC(=O)c1csc2c(-c3cc(Cl)ccc3OCCn3c(C)nc4cc(C(F)(F)F)c(Cl)c(C#N)c4c3=O)ccnc12"
experimental_endpoint = "pIC50"
observed_result = 6.06

[[record]]
compound = "Cc1nc2cnc(C3CCC(N(C)CC(F)(F)F)C3)c(C#N)c2c(=O)n1CCOc1ccc(Cl)cc1-c1ccnc2c(C(=O)O)csc12 (centres unmarked)"
experimental_endpoint = "pIC50"
observed_result = 7.84

[[record]]
compound = "Cc1nc2cnc(N(C)C3CCN(C4CC(F)(F)C4)CC3)c(C#N)c2c(=O)n1CC#Cc1ccc(Cl)cc1-c1ccnc2c(C(=O)NS(=O)(=O)Cc3ccccn3)csc12"
experimental_endpoint = "pIC50"
observed_result = 7.69

[[record]]
compound = "CCN(c1ncc2nc(C)n(CC#Cc3ccc(Cl)cc3-c3ccnc4c(C(=O)NS(C)(=O)=O)csc34)c(=O)c2c1C#N)C1CCN([C@H]2C[C@H](OC(F)F)C2)CC1"
experimental_endpoint = "pIC50"
observed_result = 7.76

[[record]]
compound = "Cc1nc2c(c(C#N)cc3ccccc32)c(=O)n1CCOc1ccc(Cl)cc1-c1ccnc2c(C(=O)O)csc12"
experimental_endpoint = "pIC50"
observed_result = 7.35

[[record]]
compound = "Cc1cc(-c2cc(Cl)ccc2OCCn2c(C)nc3cc(S(C)(=O)=O)c(N4CCN(C)CC4)c(C#N)c3c2=O)c2scc(C(=O)O)c2n1"
experimental_endpoint = "pIC50"
observed_result = 7.87

[[record]]
compound = "Cc1nc2cnc(N3CCN(C4COC4)CC3)c(C#N)c2c(=O)n1CC#Cc1ccc(Cl)cc1-c1ccnc2c(C(=O)O)csc12"
experimental_endpoint = "pIC50"
observed_result = 7.22

[[record]]
compound = "Cc1nc2cnc(N(C)C3CCN(C4(C#N)CC4)CC3)c(C#N)c2c(=O)n1CC#Cc1ccc(Cl)cc1-c1ccnc2c(C(=O)O)csc12"
experimental_endpoint = "pIC50"
observed_result = 7.61

[[record]]
compound = "Cc1nc2cnc(N(C)C3CCN([C@H]4C[C@H](F)C4)CC3)c(C#N)c2c(=O)n1CC#Cc1ccc(Cl)cc1-c1ccnc2c(C(=O)NS(=O)(=O)c3ccccn3)csc12"
experimental_endpoint = "pIC50"
observed_result = 8.14

[[record]]
compound = "CCN(c1ncc2nc(C)n(CC#Cc3ccc(Cl)cc3-c3ccnc4c(C(=O)NS(=O)(=O)C(C)C)csc34)c(=O)c2c1C#N)C1CCN(C2COC2)CC1"
experimental_endpoint = "pIC50"
observed_result = 7.97


Batch of 7 compounds: report pIC50 for each.
1. CCN(c1ncc2nc(C)n(CC#Cc3ccc(Cl)cc3-c3ccnc4c(C(=O)NS(=O)(=O)c5ccncc5)csc34)c(=O)c2c1C#N)C1CCN([C@H]2C[C@@H](OC(F)(F)F)C2)CC1
2. Cc1nc2cnc(N3CC4(C3)CN(C3CC3(C)C)C4)c(C#N)c2c(=O)n1CCOc1ccc(Cl)cc1-c1ccnc2c(C(=O)O)csc12 (centres unmarked)
3. CCN(c1ncc2nc(C)n(CC#Cc3ccc(Cl)cc3-c3ccnc4c(C(=O)NS(C)(=O)=O)csc34)c(=O)c2c1C#N)C1CCN(C2COC2)CC1
4. Cc1nc2cnc(N(C)C3C[C@@H]4C[C@H]3CN4CC(C)(F)F)c(C#N)c2c(=O)n1CC#Cc1ccc(Cl)cc1-c1ccnc2c(C(=O)O)csc12 (some centres unmarked)
5. CCN(c1ncc2nc(C)n(CC#Cc3ccc(Cl)cc3-c3ccnc4c(C(=O)NS(=O)(=O)CC)csc34)c(=O)c2c1C#N)C1CCN(C2COC2)CC1
6. Cc1nc2cnc(N(C)C3CCN(CC(F)(F)C(F)F)CC3)c(C#N)c2c(=O)n1CC#Cc1ccc(Cl)cc1-c1ccnc2c(C(=O)NS(C)(=O)=O)csc12
7. Cc1cc(-c2cc(Cl)ccc2OCCn2c(C)nc3cc(Cl)c(N4CC5(CCC5)C4)c(C#N)c3c2=O)c2scc(C(=O)O)c2n1

1. 7.45
2. 7.53
3. 7.69
4. 7.56
5. 8.09
6. 8.22
7. 7.38

Batch of 3 compounds: report pIC50 for each.
1. Cc1nc2cnc(N(C)C3CCN(CC(F)(F)F)CC3)c(C#N)c2c(=O)n1CC#Cc1ccc(Cl)cc1-c1ccnc2c(C(=O)NS(=O)(=O)c3ccccc3)csc12
2. CCN(c1ncc2nc(C)n(CC#Cc3ccc(Cl)cc3-c3ccnc4c(C(=O)NS(=O)(=O)C5COC5)csc34)c(=O)c2c1C#N)C1CCN(C2COC2)CC1
3. Cc1nc2cnc(N3CCCC4(CCN4CC(F)F)C3)c(C#N)c2c(=O)n1CCOc1ccc(Cl)cc1-c1ccnc2c(C(=O)O)csc12 (centres unmarked)

1: 7.44; 2: 7.79; 3: 7.74

Batch of 2 compounds: report pIC50 for each.
1. Cc1nc2cnc(C3=CCN(C4CC4)CC3)c(C#N)c2c(=O)n1CC#Cc1ccc(Cl)cc1-c1ccnc2c(C(=O)O)csc12
2. Cc1nc2cnc(OC3CCN(CCF)CC3)c(C#N)c2c(=O)n1CCOc1ccc(Cl)cc1-c1ccnc2c(C(=O)O)csc12

1. 7.86
2. 7.78

Data provenance is patent US11286268B1.
